Each recorded value in this set is attributed to PubChem BioAssay.

test: kinase inhibitors against Plasmodium liver-stage infection, cell-based, known kinase inhibitor set, luminescence, hepatoma host viability (AID 624392); conditions: Plasmodium liver stage in hepatoma cells, luciferase luminescence, concentration not given here; active compounds read low;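 note: infected cells incubated roughly two days before readout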
# key: entry, value: parasite % of control

compound: CCn1cc(-c2ccnc3[nH]ccc23)c(-c2cccc(NC(=O)Nc3ccc(OCc4ccccc4)cc3)c2)n1
parasite % of control, %: 95.6

compound: COc1ccc(-c2coc3ncnc(N)c23)cc1
parasite % of control, %: 116

compound: NS(=O)(=O)c1ccc(NC2CC(c3ccc(O)c(F)c3)NN2)cc1 (stereo not given)
parasite % of control, %: 139

compound: O=C1NC(=NCc2cccs2)SC1Cc1ccc2ncccc2c1 (stereo not given)
parasite % of control, %: 12.8

compound: O=C(Nc1n[nH]c2nc(-c3ccc(O)cc3)c(Br)cc12)C1CC1
parasite % of control, %: 71

compound: CS(=O)(=O)Nc1ccc(-c2cc(-c3ccccc3)cc(C(N)=O)c2N)cc1
parasite % of control, %: 126

compound: Cc1ccc2c(c1)c(C1=C(c3cn(C)c4ccccc34)C(=O)NC1=O)cn2C
parasite % of control, %: 41.7

compound: COc1cccc(/C=N/Nc2ncnc3c2cnn3-c2cccc(OC)c2)c1
parasite % of control, %: 107

compound: O=C1NC(=NCCc2ccccc2Cl)SC1=Cc1ccc2ncccc2c1
parasite % of control, %: 44.8

compound: COc1ccc2ncn(-c3cc(O[C@H](C)c4ccccc4C(F)(F)F)c(C(N)=O)s3)c2c1
parasite % of control, %: 88.3

compound: CCS(=O)(=O)c1ccc(OC)c(Nc2ncc(-c3cccc(OC)c3)o2)c1
parasite % of control, %: 16.6

compound: COC(=O)Nc1nc2ccc(Oc3cccc(NC(=O)Nc4cc(C(F)(F)F)ccc4F)c3)cc2[nH]1
parasite % of control, %: 148

compound: COc1cc(Nc2ncc(-c3ccccc3)o2)cc(OC)c1OC
parasite % of control, %: 18.6

compound: CS(=O)(=O)N1CCC(Nc2ncc(C(=O)c3c(F)cccc3F)c(N)n2)CC1
parasite % of control, %: 70.6

compound: Cc1cccc(C2NNCC2c2ccc3ncccc3n2)n1 (stereo not given)
parasite % of control, %: 104

compound: CCCN(CCS(C)(=O)=O)Cc1ccc(-c2ccc3ncnc(Nc4ccc(OCc5cccc(F)c5)c(Cl)c4)c3c2)o1
parasite % of control, %: 108

compound: Cn1cc(C2=C(c3cn(C)c4cc(N)ccc34)C(=O)NC2=O)c2ccccc21
parasite % of control, %: 26.4

compound: COc1ccc(-c2ccc3c(NC(=O)C4CC4)n[nH]c3n2)cc1
parasite % of control, %: 77.2

compound: COc1cccc(C2=C(c3cn(C)c4ccc(Cl)cc34)C(=O)NC2=O)c1
parasite % of control, %: 11.6

compound: O=S(=O)(CCNCc1ccc(-c2ccc3ncnc(Nc4ccc(OCc5cccc(F)c5)c(Cl)c4)c3c2)o1)c1ccccc1
parasite % of control, %: 102

compound: Fc1ccc(-c2c(-c3ccncc3)nc3n2CCS3)cc1
parasite % of control, %: 89.2

compound: COc1cc2c(cc1Nc1nc(N3CCc4ccccc43)c3cc[nH]c3n1)N(C(=O)CN(C)C)CC2
parasite % of control, %: 160

compound: CCCN1CCC=C(c2ccc(Nc3nc(Nc4ccccc4C(N)=O)c4cc[nH]c4n3)c(C)c2)C1
parasite % of control, %: 580

compound: Cc1ccc(C(=O)NC2CCCCC2)cc1-c1ccc(C(=O)NCC2CC2)cc1
parasite % of control, %: 134

compound: CCn1c(-c2nonc2N)nc2c(C#CC(C)(C)O)nc(CN3CCCC3)cc21
parasite % of control, %: 162

compound: Fc1ccc(-c2nc3n(c2-c2ccncc2)CCS3)cc1
parasite % of control, %: 126

compound: O=C(Nc1n[nH]c2cc(-c3cc(F)ccc3F)ccc12)C1CC1
parasite % of control, %: 72.2

compound: Cc1ccc(NC(=O)c2ccnc(N3CCOCC3)c2)cc1-c1ccc(C(=O)NCC2CC2)cc1
parasite % of control, %: 95.1

compound: Cn1cc(C2=C(c3c4n(c5ccccc35)CCN(C(N)=S)C4)C(=O)NC2=O)c2ccccc21
parasite % of control, %: 22.4

compound: CNCC#Cc1c(F)ccc2c1C(=Cc1[nH]ccc1OC)C(=O)N2
parasite % of control, %: 6.77

compound: O=C1Nc2ccc(F)c3c(OCCO)cc(-c4ccc[nH]4)c1c23
parasite % of control, %: 52.1

compound: Cn1c(=O)c(Sc2ccccc2F)cc2cnc(NC3CCOCC3)nc21
parasite % of control, %: 68.5

compound: CS(=O)(=O)CCNCc1ccc(-c2ccc3ncnc(Nc4ccc(OCc5ccccc5)c(Br)c4)c3c2)o1
parasite % of control, %: 127

compound: COc1cc[nH]c1C=C1C(=O)Nc2ccc(F)c(C#CC3(O)CCNCC3)c21
parasite % of control, %: 10.7

compound: COc1ccc(CNC(=O)c2ccc(-c3cc(-c4nnc(C)o4)ccc3C)cc2)cc1
parasite % of control, %: 67.1

compound: CC(=O)N[C@H](Cc1ccc(OP(=O)(O)O)cc1)C(=O)N[C@@H]1CCC(=O)N2CCC[C@@H](C(=O)N[C@H]3CCc4ccccc43)N2C1=O
parasite % of control, %: 61.5

compound: CC(=O)Nc1ccc2c(c1)c(C1=C(c3cn(C)c4ccccc34)C(=O)NC1=O)cn2C
parasite % of control, %: 47.8

compound: Cn1cc(C2=C(c3cn(CCCCN)c4ccccc34)C(=O)NC2=O)c2ccccc21
parasite % of control, %: 65.7

compound: CN(C)c1cc2c(Nc3ccc4nc(Cc5ccccc5)[nH]c4c3)ncnc2cn1
parasite % of control, %: 105

compound: CC(C)c1[nH]nc2c1N=C(c1ccccc1Cl)c1cc([N+](=O)[O-])ccc1N2
parasite % of control, %: 61.2
